testName: Mouse PK, IV and PO
Type: in vivo
conditionDescription: male, CD-1, plasma, 10 mg/kg; Mouse PO PK, 10 mpk
measurementType: bioavailability
Just the number plus its unit, please.

Query block: Indicate its recorded bioavailability; the molecule in question is Cc1ccccc1COc1ccc(-c2ccnn2-c2ccc(Cl)cc2)cc1
Result block: 5%

====

Can you tell me melting point for the items I'm about to list?

Query block: Indicate its recorded melting point; the molecule in question is Cc1onc(-c2ccc(OCc3cccnc3)cc2)c1-c1ccc(Cl)cc1
Result block: 115.5 to 116.4 °C

Query block: Indicate its recorded melting point; the molecule in question is Cc1cc(-c2ccc(Cl)cc2)n(-c2ccc(OCc3ccccc3C)cc2)n1
Result block: 103.4 to 105.2 °C

Query block: Indicate its recorded melting point; the molecule in question is Cc1ncccc1COc1ccc(-c2noc(C)c2-c2ccc(Cl)cc2)cc1
Result block: 107.2 to 108.8 °C

Query block: Indicate its recorded melting point; the molecule in question is Cc1onc(-c2ccc(OCc3cccc(F)c3)cc2)c1-c1ccc(Cl)cc1
Result block: 98.1 to 99.8 °C

Query block: Indicate its recorded melting point; the molecule in question is Cc1ccccc1COc1ccc(-c2ccnn2-c2ccc(Cl)cc2)c(F)c1
Result block: 131.8 to 132.8 °C

Query block: Indicate its recorded melting point; the molecule in question is Cc1ccccc1COc1ccc(-c2noc(C)c2-c2ccc(F)cc2)cc1
Result block: 119 to 120.5 °C

Query block: Indicate its recorded melting point; the molecule in question is Cc1nc(-c2ccc(OCc3ccccc3C)cc2)c(-c2ccc(Cl)cc2)s1
Result block: 90.5 to 92.1 °C

Query block: Indicate its recorded melting point; the molecule in question is Cc1cccc(COc2ccc(-c3noc(C)c3-c3ccc(Cl)cc3)cc2)c1C
Result block: 167.2 to 168.5 °C

Query block: Indicate its recorded melting point; the molecule in question is Cc1ccccc1COc1ccc(-c2c(-c3ccc(Cl)cc3)noc2C)cc1
Result block: 84.5 to 86.5 °C

====

testName: Mouse PK, IV and PO
Assay type: in vivo
conditionDescription: male, CD-1, plasma, 1 mg/kg; Mouse IV PK, 1 mpk
measurementType: AUC (ng·h/mL)
Only the number, expressed in ng·h/mL, is required.

Query block: Indicate its recorded AUC; the compound in question is Cc1ccccc1COc1ccc(-c2ccnn2-c2ccc(Cl)cc2)cc1
Result block: 436

====

Tested on: MCF7
testName: SRB cytotoxicity assay
Format: cell-based, human
conditionDescription: Homo sapiens, MCF7, 72 h, 72 h treatment
Protocol: […] Mahlavu, FOCUS, SNU475 (1000 cell/well in 150 μL/well); Huh7, MCF7 (2500 cell/well in 150 μL/well); HepG2, Hep3B, SKBR3 (3000 cell/well in 150 μL/well); PLC-PRF-5, Hep40 (5000 cell/well in 150 μL/well); MDA-MB-231, MDA-MB-468, MCF10A (6000 cell/well in 150 μL/well); and ZR-75 (7500 cell/well in 150 μL/well) were cultured in 96-well plates and were inoculated in an incubator for 24 hours. […] The IC50 values of compounds were calculated in comparison with control group DMSO. […]
pIC50: −log10 of the molar value.
measurementType: pIC50

Query block: Indicate its recorded pIC50; the compound in question is Cc1ccccc1COc1ccc(-c2ccnn2-c2ccc(Cl)cc2)cc1F
Result block: < 4.70

Query block: Indicate its recorded pIC50; the compound in question is Cc1onc(-c2ccc(OCc3ccc4ccccc4n3)cc2)c1-c1ccc(Cl)cc1
Result block: < 4.70

Query block: Indicate its recorded pIC50; the compound in question is Cc1cccc(COc2ccc(-c3noc(C)c3-c3ccc(Cl)cc3)cc2)c1
Result block: < 4.70

Query block: Indicate its recorded pIC50; the compound in question is Cc1ccccc1COc1ccc(-c2[nH]ncc2-c2ccc(Cl)cc2)cc1
Result block: 4.76

Query block: Indicate its recorded pIC50; the compound in question is Cc1ccccc1COc1ccc(-c2ccnn2-c2ccc(Cl)cc2)cc1
Result block: > 6.00

Query block: Indicate its recorded pIC50; the compound in question is Cc1onc(-c2ccc(OCc3ccccc3C(F)(F)F)cc2)c1-c1ccc(Cl)cc1
Result block: < 4.70

Query block: Indicate its recorded pIC50; the compound in question is Cc1ccccc1CNc1ccc(-c2ccnn2-c2ccc(Cl)cc2)cc1
Result block: < 4.70

Query block: Indicate its recorded pIC50; the compound in question is Cc1cccnc1COc1ccc(-c2noc(C)c2-c2ccc(Cl)cc2)cc1
Result block: ≤ 4.70

Query block: Indicate its recorded pIC50; the compound in question is Cc1nc(-c2ccc(OCc3ccccc3C)cc2)c(-c2ccc(Cl)cc2)s1
Result block: < 4.70
